# System: 439559-082-T-J2-PDC complex spheroid growth
# protocol-details: Anticancer human tumor 439559-082-T-J2-PDC patient-derived colon adenocarcinoma cell line growth inhibition [Asc]
# particulars: second compound 1 µM; first compound 0.00316 µM; active compounds read low
measure-name: viability, T/C (%)

molecule="O=C(c1ccc(F)c(F)c1Nc1ccc(I)cc1F)N1CC(O)([C@@H]2CCCCN2)C1 + Cc1c(S(C)(=O)=O)c(-c2cc(F)cc(N3CCN(c4ccc(NS(=O)(=O)c5ccc(NC(CCN6CCC(C(=O)OCCCP(=O)(O)O)CC6)CSc6ccccc6)c(S(=O)(=O)C(F)(F)F)c5)cc4)CC3)c2)c(-c2ccc(Cl)cc2)n1C(C)C" measure_name="viability, T/C" units_of_measure=% number=88.8
molecule="NC1CCC(NC2CC2c2ccccc2)CC1 (configuration not stated) + CNC(C)C(=O)NC1CN(S(=O)(=O)c2cccc(S(=O)(=O)N3CCC4CCC(C(=O)NC(c5ccccc5)c5ccccc5)N4C(=O)C(NC(=O)C(C)NC)C3)c2)CCC2CCC(C(=O)NC(c3ccccc3)c3ccccc3)N2C1=O" measure_name="viability, T/C" units_of_measure=% number=87.4

* * *

# Tested on: 439559-082-T-J2-PDC complex spheroid growth
# protocol-details: Anticancer human tumor 439559-082-T-J2-PDC cell line growth inhibition [Asc]; active = viability on the fitted dose curve at most 10% of control; inactive = the rest;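 further: spheroids exposed to agents for 7 days starting day 3 after seeding; percent of DMSO vehicle control viability with 100% = vehicle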
# particulars: second compound 0.316 µM; first compound 10 µM
Classes used: Yes = active, No = inactive

compound="C=CC(=O)N1CCN(c2nc(=O)n(-c3c(C)ccnc3C(C)C)c3nc(-c4c(O)cccc4F)c(F)cc23)C(C)C1 (stereo not drawn) + CNC(C)C(=O)NC1CN(S(=O)(=O)c2cccc(S(=O)(=O)N3CCC4CCC(C(=O)NC(c5ccccc5)c5ccccc5)N4C(=O)C(NC(=O)C(C)NC)C3)c2)CCC2CCC(C(=O)NC(c3ccccc3)c3ccccc3)N2C1=O" class_name=No
compound="O=C(c1cc(Cc2n[nH]c(=O)c3ccccc23)ccc1F)N1CCN(C(=O)C2CC2)CC1 + Cc1c(S(C)(=O)=O)c(-c2cc(F)cc(N3CCN(c4ccc(NS(=O)(=O)c5ccc(NC(CCN6CCC(C(=O)OCCCP(=O)(O)O)CC6)CSc6ccccc6)c(S(=O)(=O)C(F)(F)F)c5)cc4)CC3)c2)c(-c2ccc(Cl)cc2)n1C(C)C" class_name=No
compound="C=CC(=O)N1CCN(c2nc(=O)n(-c3c(C)ccnc3C(C)C)c3nc(-c4c(O)cccc4F)c(F)cc23)C(C)C1 (stereo not drawn) + Cc1c(S(C)(=O)=O)c(-c2cc(F)cc(N3CCN(c4ccc(NS(=O)(=O)c5ccc(NC(CCN6CCC(C(=O)OCCCP(=O)(O)O)CC6)CSc6ccccc6)c(S(=O)(=O)C(F)(F)F)c5)cc4)CC3)c2)c(-c2ccc(Cl)cc2)n1C(C)C" class_name=No
compound="C=C(F)C(=O)N1CCN(c2nc(OCC3CCCN3C)nc3c2CCN(c2cccc4cccc(Cl)c24)C3)CC1CC#N (stereo not drawn) + CNC(C)C(=O)NC1CN(S(=O)(=O)c2cccc(S(=O)(=O)N3CCC4CCC(C(=O)NC(c5ccccc5)c5ccccc5)N4C(=O)C(NC(=O)C(C)NC)C3)c2)CCC2CCC(C(=O)NC(c3ccccc3)c3ccccc3)N2C1=O" class_name=Yes
compound="O=C(c1cc(Cc2n[nH]c(=O)c3ccccc23)ccc1F)N1CCN(C(=O)C2CC2)CC1 + CNC(C)C(=O)NC1CN(S(=O)(=O)c2cccc(S(=O)(=O)N3CCC4CCC(C(=O)NC(c5ccccc5)c5ccccc5)N4C(=O)C(NC(=O)C(C)NC)C3)c2)CCC2CCC(C(=O)NC(c3ccccc3)c3ccccc3)N2C1=O" class_name=No
compound="C=C(F)C(=O)N1CCN(c2nc(OCC3CCCN3C)nc3c2CCN(c2cccc4cccc(Cl)c24)C3)CC1CC#N (stereo not drawn) + Cc1c(S(C)(=O)=O)c(-c2cc(F)cc(N3CCN(c4ccc(NS(=O)(=O)c5ccc(NC(CCN6CCC(C(=O)OCCCP(=O)(O)O)CC6)CSc6ccccc6)c(S(=O)(=O)C(F)(F)F)c5)cc4)CC3)c2)c(-c2ccc(Cl)cc2)n1C(C)C" class_name=Yes
compound="C#Cc1c(F)ccc2cc(O)cc(-c3ncc4c(N5CC6CCC(C5)N6)nc(OCC56CCCN5CC(F)C6)nc4c3F)c12 (stereo not drawn) + CNC(C)C(=O)NC1CN(S(=O)(=O)c2cccc(S(=O)(=O)N3CCC4CCC(C(=O)NC(c5ccccc5)c5ccccc5)N4C(=O)C(NC(=O)C(C)NC)C3)c2)CCC2CCC(C(=O)NC(c3ccccc3)c3ccccc3)N2C1=O" class_name=No
compound="C#Cc1c(F)ccc2cc(O)cc(-c3ncc4c(N5CC6CCC(C5)N6)nc(OCC56CCCN5CC(F)C6)nc4c3F)c12 (stereo not drawn) + Cc1c(S(C)(=O)=O)c(-c2cc(F)cc(N3CCN(c4ccc(NS(=O)(=O)c5ccc(NC(CCN6CCC(C(=O)OCCCP(=O)(O)O)CC6)CSc6ccccc6)c(S(=O)(=O)C(F)(F)F)c5)cc4)CC3)c2)c(-c2ccc(Cl)cc2)n1C(C)C" class_name=No
